Tested on: Schistosoma mansoni schistosomula (LE)
Assay: XTT viability relative to DMSO control; higher = more viable (less active)
Settings: 72 h; 10 µM
Assign XTT viability to each entry below.
Lab book: enter the figure in %, no units written.

Prompt: Entry CNc1cc(C)nc(C2CN(C(=O)c3n[nH]c4ccccc34)CCO2)c1 (centres undefined) needs its XTT viability filled in; supply it.
Completion: 123

Prompt: Entry O=C(C1CCN(c2cc(-n3cccc3)ncn2)CC1)N1CCc2ccccc2C1 needs its XTT viability filled in; supply it.
Completion: 96.4

Prompt: Entry CN1CCCN(C(c2ccccc2)c2ccc(Cl)cc2)CC1 (centres undefined) needs its XTT viability filled in; supply it.
Completion: 67.9

Prompt: Entry NCC(c1cccs1)S(=O)(=O)c1ccccc1 (centres undefined) needs its XTT viability filled in; supply it.
Completion: 45.2

Prompt: Entry CCC(Sc1nc2ccccc2o1)C(=O)Nc1nccs1 (centres undefined) needs its XTT viability filled in; supply it.
Completion: 7.06

Prompt: Entry CS(=O)(=O)Cc1nc2ccccc2oc1=O needs its XTT viability filled in; supply it.
Completion: 355

Prompt: Entry CC1=Nc2ccc(Cl)cc2C(O)(c2ccc(C)cc2)N1CCN1CCCCC1 (centres undefined) needs its XTT viability filled in; supply it.
Completion: -4.23

Prompt: Entry CC(C)(C)c1cnc(NC(=O)c2ccccc2O)s1 needs its XTT viability filled in; supply it.
Completion: 79.9

Prompt: Entry COc1ccc(-c2cnc3ccc(N4CCCC4)nn23)cc1OC needs its XTT viability filled in; supply it.
Completion: 60.5

Prompt: Entry Cc1cnc(N2CCN[C@@H](Cc3ccccc3)C2)nc1Oc1ccc(-n2ccnc2)cc1 needs its XTT viability filled in; supply it.
Completion: 17.8

Prompt: Entry CC(C(=O)N1CCCC1)N1CCN(S(=O)(=O)c2ccc(C(C)(C)C)cc2)CC1 (centres undefined) needs its XTT viability filled in; supply it.
Completion: 109

Prompt: Entry O=C(NCc1ccoc1)N1CCN(Cc2ccc3c(c2)OCO3)CC1 needs its XTT viability filled in; supply it.
Completion: 76.2

Prompt: Entry CC(C)C(C(=O)Nc1ccc(S(=O)(=O)N(C)C)cc1)c1ccc(Cl)cc1 (centres undefined) needs its XTT viability filled in; supply it.
Completion: 29.5

Prompt: Entry CCN(CC)CCCN1CCN(C(=O)c2cccc(-c3noc(C(F)(F)F)n3)c2)CC1 needs its XTT viability filled in; supply it.
Completion: 97.3

Prompt: Entry O=C(C1CCN(c2nnc(-n3cccc3)s2)CC1)N1CCC(Cc2ccccc2)CC1 needs its XTT viability filled in; supply it.
Completion: 103

Prompt: Entry CC1(C)Cc2c(c(N3CCOCC3)nc3snc(Br)c23)CO1 needs its XTT viability filled in; supply it.
Completion: 71.5

Prompt: Entry COc1ccc(C(=N)N)cc1-c1cn(-c2ccc(C(=N)N)cc2)nn1 needs its XTT viability filled in; supply it.
Completion: 69.3

Prompt: Entry COC(=O)c1cccc2oc(-c3cccc(OC)c3NC(=O)c3cc(-c4ccccc4)on3)nc12 needs its XTT viability filled in; supply it.
Completion: 88.1

Prompt: Entry Cc1cccc(-c2nc(Nc3ccncn3)c3sccc3n2)n1 needs its XTT viability filled in; supply it.
Completion: 39.9

Prompt: Entry O=C(Nc1nnc(-c2ccc(Cl)cc2)o1)c1cccc(C(F)(F)F)c1 needs its XTT viability filled in; supply it.
Completion: -9.98

Prompt: Entry COC(=O)c1ccc(F)cc1NS(=O)(=O)c1cccc(-c2cnn(Cc3ccccc3)c2)c1 needs its XTT viability filled in; supply it.
Completion: 89.1

Prompt: Entry OCc1ccc(-c2cncc(Nc3cccc(Cl)c3)c2)cc1 needs its XTT viability filled in; supply it.
Completion: 99.5

Prompt: Entry O=C(Nc1ccc(C(F)(F)F)c(C(F)(F)F)c1)c1cc(Cl)ccc1O needs its XTT viability filled in; supply it.
Completion: 35.4

Prompt: Entry CC1CS(=O)(=O)CCN1/N=C/c1ccc([N+](=O)[O-])o1 (centres undefined) needs its XTT viability filled in; supply it.
Completion: 224

Prompt: Entry Cc1nn(C(=O)Nc2cccc(C(F)(F)F)c2)c(C)c1Sc1ncccn1 needs its XTT viability filled in; supply it.
Completion: 137

Prompt: Entry O=C(c1ccco1)N(CCCn1ccnc1)c1nc2c(Cl)cccc2s1 needs its XTT viability filled in; supply it.
Completion: 46.4

Prompt: Entry COc1cccc(NC(=O)c2c(NC(=O)c3cccnc3)sc3c2CCC3)c1 needs its XTT viability filled in; supply it.
Completion: 94.4

Prompt: Entry COc1cccc(-c2cc3c(Nc4cccnc4)nccc3[nH]2)c1 needs its XTT viability filled in; supply it.
Completion: 104

Prompt: Entry O=C(NCc1ccco1)N1CCN(Cc2ccc(Cl)s2)CC1 needs its XTT viability filled in; supply it.
Completion: 93.6

Prompt: Entry N#CCN(CCCCN1CCN(c2ccc(F)cc2)CC1)C(=O)OCc1ccccc1 needs its XTT viability filled in; supply it.
Completion: 118

Prompt: Entry Cn1c(=O)c2c(S(C)(=O)=O)snc2n(C)c1=O needs its XTT viability filled in; supply it.
Completion: -0.448

Prompt: Entry CCOC(=O)c1noc(N)c1-c1ccccc1 needs its XTT viability filled in; supply it.
Completion: 94.1

Prompt: Entry CCOc1ccccc1C(=O)Nc1cccc(-c2nc3ncccn3c2C)c1 needs its XTT viability filled in; supply it.
Completion: 107

Prompt: Entry O=C(Nc1c(O)cccc1-c1nc2c(C(=O)O)cccc2o1)c1cc(-c2ccccc2)on1 needs its XTT viability filled in; supply it.
Completion: 80.2

Prompt: Entry Cc1cc(C)n(-c2ccc(NC(=O)C3CCN(Cc4cnc(C)s4)CC3)cc2)n1 needs its XTT viability filled in; supply it.
Completion: 135

Prompt: Entry Cc1cc(C)nc(-n2nc(C)cc2Nc2ccccc2)n1 needs its XTT viability filled in; supply it.
Completion: 55.6

Prompt: Entry O=C(C1CCCCC1)N1CC(=O)N2CCc3ccccc3C2C1 (centres undefined) needs its XTT viability filled in; supply it.
Completion: 97.3

Prompt: Entry Cc1cc2nc(NC(=O)C(C)(C)C)nc(Cl)c2n1Cc1ccc(Cl)cc1 needs its XTT viability filled in; supply it.
Completion: 109

Prompt: Entry Cc1noc(C)c1C(=O)N1CCCC(c2[nH]c3c(C)cccc3c2-c2ccncc2)C1 (centres undefined) needs its XTT viability filled in; supply it.
Completion: 67.5

Prompt: Entry CC(=O)NC[C@H]1CN(c2ccc(N3CCSCC3)c(F)c2)C(=O)O1 needs its XTT viability filled in; supply it.
Completion: 145

Prompt: Entry O=C(Nc1nnc(S)s1)c1cc(Br)ccc1Cl needs its XTT viability filled in; supply it.
Completion: 91.7

Prompt: Entry COc1ccccc1C(C)NCC(=O)Nc1cc(C(F)(F)F)ccc1Cl (centres undefined) needs its XTT viability filled in; supply it.
Completion: 67.7

Prompt: Entry COc1ccc(S(=O)(=O)Nc2ccc(CN3CCN(C(=O)c4cccc(C#N)c4)CC3)cc2)cc1 needs its XTT viability filled in; supply it.
Completion: 144

Prompt: Entry O=C1[C@@H](Oc2ccccc2)[C@@H](c2ccc(Cl)cc2)N1CCn1cnc2c(NCc3ccccc3)ncnc21 needs its XTT viability filled in; supply it.
Completion: 68.1

###

Test system: Schistosoma mansoni schistosomula (Liberian)
Test: drug effect (1 - score/DMSO control score) (fraction); higher = more antischistosomal effect, active = 0.5 or more; extreme values may be limits of the assay
Conditions: 48 h; 10 µM
Pick from active, inactive when you respond.

Prompt: Tell me the recorded outcome of this test for Cc1ccc(S(=O)(=O)n2cc(-c3ccnc(N)c3)c3cc(Br)cnc32)cc1 .
Completion: active

Prompt: Tell me the recorded outcome of this test for COC(=O)c1c(NC(=O)c2cc3ccccc3oc2=O)sc2c1CCN(Cc1ccccc1)C2 .
Completion: inactive

Prompt: Tell me the recorded outcome of this test for COc1ccc(Oc2ccc([C@@H](C)N(C)c3ncc4c(N)nc(N)nc4n3)cc2)cc1 .
Completion: active

Prompt: Tell me the recorded outcome of this test for Cc1cccc(-c2nc(Nc3ccncn3)c3sccc3n2)n1 .
Completion: active

Prompt: Tell me the recorded outcome of this test for N#Cc1ccc(-c2cnc(N)c(-c3ccc(C(N)=O)cc3)n2)cc1 .
Completion: inactive

Prompt: Tell me the recorded outcome of this test for Cc1cc(C)c2cc(C(=O)NC3CCCCCCC3)[nH]c2c1 .
Completion: inactive

Prompt: Tell me the recorded outcome of this test for CC(c1cc(Cl)cc(Cl)c1)N(C)c1ncc2c(N)nc(N)nc2n1 (configuration not stated) .
Completion: inactive

Prompt: Tell me the recorded outcome of this test for COc1ccc(C2CC(c3cccs3)=NN2C(=O)c2ccco2)cc1OC (configuration not stated) .
Completion: inactive

Prompt: Tell me the recorded outcome of this test for CCc1cc(=O)n(C)c(SC(C)C(=O)Nc2ccc(F)cc2)n1 (configuration not stated) .
Completion: inactive

Prompt: Tell me the recorded outcome of this test for O=C(NCc1ccco1)N1CCN(Cc2ccc(Cl)s2)CC1 .
Completion: inactive

Prompt: Tell me the recorded outcome of this test for Nc1ccc2ncnc(Nc3ccc(OCc4cccc(F)c4)c(Cl)c3)c2c1 .
Completion: active

Prompt: Tell me the recorded outcome of this test for CNc1nnc(Sc2cnn(-c3ccccc3)c(=O)c2Cl)s1 .
Completion: active

Prompt: Tell me the recorded outcome of this test for c1csc(-c2cnc3sc(NCC4CCOCC4)nn23)c1 .
Completion: active

Prompt: Tell me the recorded outcome of this test for CCc1nc2ccc(Cl)cn2c1C(=O)NCc1ccc(N2CCC(c3ccc(OC(F)(F)F)cc3)CC2)cc1 .
Completion: inactive

Prompt: Tell me the recorded outcome of this test for CNC(=O)C1Cc2ccccc2N1C(=O)Cc1ccc(F)cc1 (configuration not stated) .
Completion: inactive

Prompt: Tell me the recorded outcome of this test for O=C(Nc1c(O)cccc1-c1nc2c(C(=O)O)cccc2o1)c1cc(-c2ccccc2)on1 .
Completion: inactive

Prompt: Tell me the recorded outcome of this test for c1ccc(-c2cc(N3CCCCC3)c3ccccc3n2)nc1 .
Completion: inactive

Prompt: Tell me the recorded outcome of this test for CC(C)(C)c1ccc(N[C@@H]2CCCC[C@H]2NC(=O)c2ccco2)cc1 .
Completion: inactive

Prompt: Tell me the recorded outcome of this test for Cc1cc(C(=O)Nc2cnn(Cc3ccc(Cl)cc3Cl)c2)no1 .
Completion: inactive

Prompt: Tell me the recorded outcome of this test for O=C([C@@H](c1ccc(Cl)cc1)c1cccnc1)N1CCN(c2ccc(C(F)(F)F)cc2)CC1 .
Completion: active

Prompt: Tell me the recorded outcome of this test for NC(CC(=O)c1ccc(Cl)cc1Cl)C(Cl)(Cl)Cl (configuration not stated) .
Completion: inactive

Prompt: Tell me the recorded outcome of this test for CS(=O)(=O)c1ccccc1C(=O)N(Cc1ccccc1)c1ccccc1 .
Completion: inactive

# credit: the supplement of paper PMC6805474
